Measured values drawn from PubChem BioAssay AID623911 for this set.

target-under-test: G protein-activated inward rectifier potassium channel 2 (Homo sapiens) + G protein-activated inward rectifier potassium channel 1 (Homo sapiens) (UniProt P48051+P48549)
Sequence (P48051 whole entry, looked up): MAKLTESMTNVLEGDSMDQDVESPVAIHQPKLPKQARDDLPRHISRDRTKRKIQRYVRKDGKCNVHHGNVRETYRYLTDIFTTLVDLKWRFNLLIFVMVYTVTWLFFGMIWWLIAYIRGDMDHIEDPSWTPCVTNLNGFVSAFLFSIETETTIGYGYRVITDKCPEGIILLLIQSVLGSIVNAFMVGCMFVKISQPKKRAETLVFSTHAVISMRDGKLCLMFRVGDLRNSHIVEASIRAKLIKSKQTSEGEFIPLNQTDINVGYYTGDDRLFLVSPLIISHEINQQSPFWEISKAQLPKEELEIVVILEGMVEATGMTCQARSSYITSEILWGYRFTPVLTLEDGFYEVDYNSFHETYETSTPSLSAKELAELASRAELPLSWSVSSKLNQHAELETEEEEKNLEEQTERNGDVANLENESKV
Sequence (P48549 whole entry, looked up): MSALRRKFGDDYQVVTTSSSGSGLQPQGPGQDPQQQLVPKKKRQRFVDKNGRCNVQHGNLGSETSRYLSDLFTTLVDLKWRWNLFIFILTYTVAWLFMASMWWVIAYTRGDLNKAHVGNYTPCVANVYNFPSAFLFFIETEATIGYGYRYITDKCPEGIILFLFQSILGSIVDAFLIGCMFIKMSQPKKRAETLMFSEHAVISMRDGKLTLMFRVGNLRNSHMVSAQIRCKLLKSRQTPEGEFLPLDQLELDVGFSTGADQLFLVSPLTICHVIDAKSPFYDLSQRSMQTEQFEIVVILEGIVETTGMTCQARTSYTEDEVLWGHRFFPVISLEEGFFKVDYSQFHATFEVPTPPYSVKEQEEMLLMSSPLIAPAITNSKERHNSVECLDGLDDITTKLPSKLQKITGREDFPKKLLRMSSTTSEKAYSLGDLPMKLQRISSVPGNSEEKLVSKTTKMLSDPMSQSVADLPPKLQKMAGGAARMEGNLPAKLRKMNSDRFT
experiment-summary: GIRK1/2 thallium flux modulators, retest, confirmation, cell-based, HEK293 rmGlu8/hGIRK1/2, FluoZin-2 (AID 623911)
condition-parameters: HEK293 rmGlu8/hGIRK1/2, thallium flux FluoZin-2; actives lie on both sides; glutamate co-added at its EC20 level
The campaign covered roughly 2,100 compounds. About 770 (37%) were called active. The list shows a part of the results.
measured-property: manual score
No unit in the answer, only the number.

Cn1c(=O)c2c(nc3sccn32)n(C)c1=O: 0

Reported manual score for `Cn1c(=O)c(NCCO)c2c3c(cccc31)C(=O)c1ccccc1-2` : what is it? 3

Entry under review: `Cc1ccc(C)c(C(=O)c2c(C)nc3sccn23)c1` . Reported manual score? -1

====

target-under-test: G protein-activated inward rectifier potassium channel 2 (Homo sapiens) + G protein-activated inward rectifier potassium channel 1 (Homo sapiens) (UniProt P48051+P48549)
experiment-summary: GIRK1/2 thallium flux modulators, retest, confirmation, cell-based, HEK293 rmGlu8/hGIRK1/2, FluoZin-2 (AID 623911)
condition-parameters: HEK293 rmGlu8/hGIRK1/2, thallium flux FluoZin-2; actives lie on both sides; glutamate co-added at its EC20 level
The whole screen tested about 2,100 compounds, of which about 770 (37%) were called active.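 The calls were made as follows: active = by-eye trace score of 1 for enhancers or -1 for inhibitors, so actives lie on both sides (some results past the limit were not filed as active); inactive = score 0, or 3 fluorescent, or 4 baseline rise.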 This is one part of the list.
Log the outcome using a class from t for active, f for inactive

Hi, sorry to bother you, what did the test record for `CCOC(=O)c1oc2nc(C(C)C)c3c(c2c1N)CC(C)(C)OC3` ? f

Give the logged outcome of this assay for the following compound: `COc1cc(NC(=O)CSCc2cnn(-c3ccccc3)c2-n2cccc2)cc(OC)c1` f

So what was the verdict on `COC(=O)c1sccc1NC(=O)CSc1ccccc1NS(=O)(=O)c1ccc(Cl)cc1` in this test? f

Per the records of this test, what outcome belongs to `CSc1ccccc1C(=O)Nc1cccc(C(C)=O)c1` ? f

Test call for this compound, please: `CCOC(=O)N1CCN(c2ccc3nnnn3n2)CC1` f

I'd appreciate the recorded outcome for `CCOC(=O)N1CCN(c2c(F)cc3[nH]c(=S)[nH]c3c2Br)CC1` from this test. t

Kindly provide the recorded test outcome for the following compound: `CCCC(=O)Nc1ccccc1N1CCN(C(=O)c2ccccc2)CC1` f

Hi, sorry to bother you, what did the test record for Cc1ccc(/C(O)=C2\C(=O)C(=O)N(c3cc(C)on3)C2c2cccc(Br)c2)cc1 (stereo not drawn) ? f

Test call, this compound: `Oc1c(C=NCc2ccncc2)sc2ccccc12` t

Answer briefly: the call reported for `Cc1cccc(OCC(=O)NC(=S)Nc2ccccc2N2CCOCC2)c1` in this assay. f

Answer briefly: the call reported for `O=C1CCC(/C=C/c2ccccc2)=NN1Cc1ccc(Cl)c(Cl)c1` in this assay. f

Can you look up the reported call for `CCOc1ccc(NC(=O)Cn2nnc(-c3ccccc3F)n2)cc1` for me? f

Entry `CCC(=O)N1CCN(c2ccccc2NC(=O)COc2cccc(C)c2)CC1` : call = ? t

For `CCOc1cc(N2CCOCC2)c(OCC)cc1NC(=O)COC(=O)CCc1c[nH]c2ccccc12` , what call appears in the results of this test? f

// return assay outcome for `COc1c2occc2c(OC)c2c(=O)cc(C(F)(F)F)oc12` f

For Cc1oc(-c2ccccc2)nc1CS(=O)CC(=O)O (stereo not drawn) , what call appears in the results of this test? t

====

Examples of compounds with documented manual score follow.
target-under-test: G protein-activated inward rectifier potassium channel 2 (Homo sapiens) + G protein-activated inward rectifier potassium channel 1 (Homo sapiens) (UniProt P48051+P48549)
experiment-summary: GIRK1/2 thallium flux modulators, retest, confirmation, cell-based, HEK293 rmGlu8/hGIRK1/2, FluoZin-2 (AID 623911)
condition-parameters: HEK293 rmGlu8/hGIRK1/2, thallium flux FluoZin-2; actives lie on both sides; glutamate co-added at its EC20 level
Hit rate of the full screen: of about 2,100 compounds, about 770 (37%) were called active. The list shows a part of the results.
The answer should be a number; do not append a unit.

Consider the following illustrative entries.
CCN(CC)c1ccc2cc(C=O)c(=O)oc2c1: 3
CCC1(C)CC(c2csc(N)n2)CCO1 (configuration not stated): 0
CCNC(=S)NNC(=O)c1cccn(Cc2ccc(Cl)cc2)c1=O: 0
Cn1sc(NC(=O)c2cccc(Cl)c2)nc1=O: 0
c1ccc(-c2nnc3n2NC(c2ccc4c(c2)OCO4)S3)cc1 (configuration not stated): 1
COc1cc(/C=C(/C#N)c2ccc(F)cc2)ccc1OCc1ccc(C(=O)O)o1: 0
COc1cc(/C=C2/SC(=S)NC2=O)ccc1OS(=O)(=O)c1ccc(C)cc1: 0
CCOC(=O)C(C)Oc1ccc2c(CC)cc(=O)oc2c1C (configuration not stated): 0
CNC(=S)N/N=C(\C)c1ccc(Cl)s1: 1
Cn1c2ccccc2c2cc(C(=O)NNS(=O)(=O)c3ccc(F)cc3)sc21: 0

For the compound `O=C(NNC(=O)c1sccc1-n1cccc1)c1ccc(Cl)cc1` , what manual score is on record? 1

Please look up its manual score: `Oc1ccc2ccc3cccc[n+]3c2c1` 3

====

target-under-test: G protein-activated inward rectifier potassium channel 2 (Homo sapiens) + G protein-activated inward rectifier potassium channel 1 (Homo sapiens) (UniProt P48051+P48549)
experiment-summary: GIRK1/2 thallium flux modulators, retest, confirmation, cell-based, HEK293 rmGlu8/hGIRK1/2, FluoZin-2 (AID 623911)
condition-parameters: HEK293 rmGlu8/hGIRK1/2, thallium flux FluoZin-2; actives lie on both sides; glutamate co-added at its EC20 level
Screen size: about 2,100 compounds; about 770 (37%) were called active.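 Rule for the calls: active = by-eye trace score of 1 for enhancers or -1 for inhibitors, so actives lie on both sides (some results past the limit were not filed as active); inactive = score 0, or 3 fluorescent, or 4 baseline rise.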 The list shows a part of the results.
Choose the fitting class; nothing outside YES = active, NO = inactive is accepted.

N#CC1=C(N)SC(N)=C(C#N)C1CCc1ccccc1: NO

Lab log entry: `Cc1cccc(NC(=S)NC(=O)CCc2ccccc2)c1` — outcome as called in the assay? NO

Assay result, entry `COC(=O)c1c(NS(=O)(=O)c2cccs2)sc2c1CCCC2` — outcome? YES

Any idea what this test logged for `Cc1sccc1C1C(C#N)=C(N)SC(N)=C1C#N` ? NO

Recorded call for `CCN(C(=O)CN1CCN(c2ccccc2O)CC1)c1c(N)n(Cc2ccccc2)c(=O)[nH]c1=O` ? NO

====

Entries and their measured manual score follow.
target-under-test: G protein-activated inward rectifier potassium channel 2 (Homo sapiens) + G protein-activated inward rectifier potassium channel 1 (Homo sapiens) (UniProt P48051+P48549)
experiment-summary: GIRK1/2 thallium flux modulators, retest, confirmation, cell-based, HEK293 rmGlu8/hGIRK1/2, FluoZin-2 (AID 623911)
condition-parameters: HEK293 rmGlu8/hGIRK1/2, thallium flux FluoZin-2; actives lie on both sides; glutamate co-added at its EC20 level
Out of some 2,100 compounds screened, about 770 (37%) were called active. The list shows a part of the results.

Consider the compound COc1ccc(CNC(=O)C(C#N)c2nc3ccccc3nc2N2CCCC2)cc1 (stereo unspecified) and give its measured manual score. 3 (inactive)

Value lookup for manual score; key = `CCOC(=O)N1CCC(n2c(=S)[nH]c3ccccc3c2=O)CC1` 0 (inactive)

// lookup manual score for `Fc1ccc(CSc2nc3ccccc3[nH]2)c2ccccc12` 1 (active)

I would be grateful if you could share the reported manual score for `COc1cccc(CNc2nc3ccccc3n2CCN2CCCCC2)c1OC` . -1 (active)

Please give the measured manual score for this compound: CC(Sc1nc2ccccc2c(=O)[nH]1)C(=O)O (stereo unspecified) 0 (inactive)

Consider the compound shown here: `Cc1ccc(NC(=O)c2cc(NC(=O)CCC(=O)O)ccc2N2CCCCC2)cc1` What is its recorded manual score? 0 (inactive)

Fill in: manual score of `CCn1c(NC(=S)Nc2ccccc2)nc2ccccc21` is ___ 0 (inactive)

// returns reported manual score for input `COc1ccc(N(CC(=O)NCCSc2ccccn2)S(C)(=O)=O)cc1Cl` 0 (inactive)

Tell me the measured manual score of `Cc1cccc2c1nc(-c1ccccc1)n1cnnc21` , please. 0 (inactive)

Please look up its manual score: `COc1ccccc1CNC(=O)c1c(N)n(CCCN2CCOCC2)c2nc3ccccc3nc12` 0 (inactive)

Given the compound `Cn1c(CNc2nc3ccccc3n2CCN2CCCCC2)nc2ccccc21` , what is its reported manual score? -1 (active)

====

target-under-test: G protein-activated inward rectifier potassium channel 2 (Homo sapiens) + G protein-activated inward rectifier potassium channel 1 (Homo sapiens) (UniProt P48051+P48549)
experiment-summary: GIRK1/2 thallium flux modulators, retest, confirmation, cell-based, HEK293 rmGlu8/hGIRK1/2, FluoZin-2 (AID 623911)
condition-parameters: HEK293 rmGlu8/hGIRK1/2, thallium flux FluoZin-2; actives lie on both sides; glutamate co-added at its EC20 level
The campaign covered roughly 2,100 compounds. About 770 (37%) were called active. Some of the results follow.
manual score vs 0: less than gives Met; not less than gives Not met.

CC1=NN(C(N)=S)C(=O)C1N=Nc1ccc(C)cc1C (stereo not given): Not met

manual score strictly < 0 for this molecule? `COc1ccc(/C=N/n2c(-c3cccs3)n[nH]c2=S)cc1` Not met

Does the reported manual score of the following molecule sit strictly below 0? CC1CCCCN1Cc1nc2c(c(=O)n(C)c(=O)n2C)n1CCc1ccccc1 (stereo not given) Met

Dear colleague, could you confirm whether manual score of Cc1ccc(OCC(O)Cn2c(=N)n(CCN3CCCCC3)c3ccccc32)cc1 (stereo not given) falls below 0? Thanks. Met

Please state whether manual score is below 0 for `S=C(Nc1cccc(Cl)c1)Nc1ccccc1Oc1ccccc1` Not met
